- Assay protocol: NCI Yeast Anticancer Drug Screen. Data for the mlh1 rad18 strain (AID 175)
- Test conditions: S. cerevisiae mlh1 rad18 strain growth inhibition; at 50.0 µM (retest, dose inferred, filed as 5.0); stronger effect = higher value
Compounds without any hit were thinned out: in the full panel of roughly 79,000, 15% have a hit. *1 amine or outer side, *2 acyl side, *3 side chain or, on linkers, in order; H or OH if unused. Where a SMILES comes first, the peptide text is derived from it. Bridges are numbered along the chain shown (N, C = ends). [ ]: non-standard residue; d: D form. The star is where a group is joined. ξ: configuration not given here. ξOrn(4,5-diOH) = O=C(C(CC(O)C(O)N[*:3])N[*:1])[*:2]; ξhTyr(βξ-OH,γξ-OH) = NC(C(=O)O)C(O)C(O)c1ccc(O)cc1; ξPro(3ξ-OH,4ξ-Me) = CC1CNC(C(=O)O)C1O; X1 = CCCCC/C=C/C/C=C\CCCCCCCC(=O)*; Hyp = O=C(O)[CH]1C[CH](O)CN1
growth inhibition: recorded values
Quick reminder: number only, in %, skip the unit.

Sample answers from the record:
- O=C(Nc1ccccc1)c1cccc2ccccc12: 7
- Fc1ccc2nncc(SCc3ccccc3)c2c1: 98
- CCCCC/C=C/C/C=C\CCCCCCCC(=O)NC1CC(O)C(O)NC(=O)C2C(O)C(C)CN2C(=O)C(C(C)O)NC(=O)C(C(O)C(O)c2ccc(O)cc2)NC(=O)C2CC(O)CN2C(=O)C(C(C)O)NC1=O (stereo not drawn) (X1-[ξOrn(4,5-diOH)]T[Hyp][ξhTyr(βξ-OH,γξ-OH)]T[ξPro(3ξ-OH,4ξ-Me)]; lactam 1-C; configuration not given here): 96
- CNC(=O)NC(c1cc(OC)c(OC)c(OC)c1)c1cc2c(cc1O)OCO2 (centres undefined): -5
- C#CC(CC)(CC)N=Cc1cc(Cl)cc(Cl)c1O: 98
- CN1c2ccccc2C(c2ccccc2)c2ccc(Nc3ccccc3)cc21 (centres undefined): 99
- Cc1ccc2nc(CC(=O)c3cccnc3)c(CC(=O)c3cccnc3)nc2c1: 91
- CS(=O)(=O)OCCN(CCOS(C)(=O)=O)c1ccc(C=Nc2ccc(-c3cnc(-c4ccc(Cl)cc4)s3)cc2)c(Cl)c1: 89
- CCCCCCCCCCCCCC1OC(=O)C(C)=C1C(=O)O (centres undefined): 74
- COc1ccc2c(c1)nc1cc(Cl)ccc1[n+]2C: 97

Lab note: C/C(=N\NC(=S)Nc1ccc(Cl)cc1)c1nc2ncccc2[nH]1 gave growth inhibition of 98

Lab note: Cc1csc2[n+]1C(=O)/C(=C\c1ccc([N+](=O)[O-])cc1)S2 gave growth inhibition of 82

Lab note: CN(C)c1ccc(/C=C(\NC(=O)c2ccccc2)c2nc3ccccc3s2)cc1 gave growth inhibition of 96

Lab note: CCCCc1c2c(nc3c1CCc1cc4cc5c(nc4nc1-3)-c1nc3c(c(CCCC)c1CC5)CCCC3=O)C(=O)CCC2 gave growth inhibition of 96

Lab note: O=c1[nH]c2c([N+](=O)[O-])cc(Cl)cc2nc1/C=C(\O)c1cccc2ccccc12 gave growth inhibition of 85

Lab note: COc1c(O)cc2c(c1O)C(=O)C1=C(CCCC1)C2=O gave growth inhibition of 70

Lab note: NS(=O)(=O)c1ccc(Nc2c3ccccc3nc3c(C(=O)NC(CO)(CO)CO)cccc23)cc1 gave growth inhibition of 9

Lab note: O=C(NC(Cc1ccccc1)C(=O)O)c1ccncc1 (centres undefined) gave growth inhibition of -6

Lab note: CN(C)CCCSc1c2ccccc2nc2cc(NCC(=O)Nc3ccccc3-c3ccccc3NC(=O)CNc3ccc4c(SCCCN(C)C)c5ccccc5nc4c3)ccc12 gave growth inhibition of 98
